Value source: patent US20160040149A1

Give measured Fold Activity for each item. Keep answers brief.
- Assay Procedure: Saturation mutagenesis of SEQ ID NO:109: dicamba decarboxylation activity of point mutants (CO2 released), fold of backbone (Tables 7, 8, Megatable 1)
- Details: decarboxylation activity (CO2 released) of point mutant vs unmutated backbone protein; backbone SEQ ID NO: 109
# output: bare number, implied unit fold

Prompt: Report Fold Activity for 5 (protein, listed as Staphylococcus aureus) MAQNNMEANQMKSITFEEHYVIEDIQKETMNAISADPKGVPMKVMLEGLEKKTGFTNADELSHHDERIQFMNNQDVQIQVLSYGNGSPSNLVGQKAIELCQKANDQLANYIAQYPNRFVGFATLPINEPEAAAREFERCINDLGFKGALIMGRAQDGFLDQDKYDIIFKTAENLGVPIYLHPAPVNSDIYQSYYKGNYPEVTAATFACFGYGWHIDVGIHAIHLVLSGIFDRYPKLNMIIGHWGEFIPFFLERMDEALFAEHLNHPVSYYFKNNFYITPSGMLTKPQFDLVKKEAGIDRILYAADYPYIEPEKLGVFLDELGLTDEEKEKISYTNGAKLLGLSSNN please.
Completion: 0.8

Prompt: Follow-up entry: 60 (protein, listed as Catenulispora acidiphila) MARGFVRTAVVPGFWDAGWRGAGQPGGMRVDVHAHLFPAAYLDLLDDFRQDGGVGTREVRALGGGDGERELRLRLAAMDAVGVDVQLLSTCPQGPYTGDPTAAVEAARCANVALAQTVAQYPERLRALAALPLPHILASVDELNRAMEQDGMLGAAVGTSILGRPLSHPDFEPLFAALNRRKGVLFVHPIGESAGSPLMQASKLDRVIGYAAEVSTAILQLFQAGLTVKYPDIRIIAPHMGGYLPFLIQRLDRHRDWYLPKDAPSAGQLMRGIAYDTANPLPAALRLTAEVVGPERLLLGTDYPFEQGPSLRDHIEYILAAGLPEAQAKMIVDVNAADFLDMRSGAEQPPV
Completion: 1.6

Prompt: Another molecule to look at: 103 (protein, Plasmodium yoelii yoelii) MAMEIPTEEIKFLKKEDVQNIDLNGMSKKERYEIWRRIPKVELHCHLDLTFSAEFFLKWARKYNLQPNMSDDEILDHYLFTKEGKSLAEFIRKAISVSDLYRDYDFIEDLAKWAVIEKYKEGVVLMEFRYSPTFVSSSYGLDVELIHKAFIKGIKNATELLNNKIHVALICISDTGHAAASIKHSGDFAIKHKHDFVGFDHGGREIDLKDHKDVYHSVRDHGLHLTVHAGEDATLPNLNTLYTAINILNVERIGHGIRVSESDELIELVKKKDILLEVCPISNLLLNNVKSMDTHPIRKLYDAGVKVSVNSDDPGMFLSNINDNYEKLYIHLNFTLEEFMIMNNWAFEKSFVSDDVKSELKALYF
Completion: 1.7

Prompt: Try 64 (protein, listed as Achromobacter piechaudii) MAIQKIDMHAHFFPPITRQEAAALDPVNAPWLRPDADGATGQIMAGEREFRPVDATLWDPALRIEQMDRHGVDVQILCATPIMFGYTYPARPAADWAARMNDLALEHCAYAPSRLKALAQVPLQDLELACQEASRARAAGHLGVQIGNHVGPRDLDDETLVQFLIHCANNDIPVLVHPWDMMTDGRMKKWMLPWLVSMPAETQLGILSLILSGAFERIPRSLKLCFAHGGGSFAYLLGRVDNAWRHRDIIRQDCPQLPSSYTDRFYTDSAVFDPRSLRLLIDVMGEDRVLLGSDYPYPLGEQEVGRLVAHAELVPEVQQKILFRNTMTFFGLQPGLQPGLQS next.
Completion: 1.8

Prompt: Then 142 (protein, Dicamba decarboxylase variant) MAQGKVALEEHFAIPETLQDSAGFVPGDYWKELQHRLLDIQDTRLKLMDAHGIETMILSLAAPAVQAIPDRRKAIEIARRANDFLAEECAKRPDRFLAFAALPLQDPDAATEELQRTVNDLGFVGALVNGFSQEGDGQTPLYYDLPQYRPFWGEVEKLDVPFYLHPRNPLPQDSRIYDGHPWLLGPTWAFAQETAVHALRLMASGLFDEHPRLNIILGHLGEGLPYMMYRIDHRIAWVHEPPRYPAKRRFMDYFNENFHITTSGNFRTQTLIDAILEIGADRILFSTDWPFENIDHAADWFNATSIAEADRVKIGRTNARRLFKLDLD ?
Completion: 1

Prompt: Please do the same for 93 (protein, listed as Mucilaginibacter paludis) MAKYGKHITINKNMRIVTLEEHISFPEMADQIPKAALGSFGRSEAMQRIAPKLADITGERLKSMDANGISMQVLSVDSSGVNLLSPQQGPAFATQYNDLIANRIAGFEKRFTAFAHLPMTAPFAAADELERAVKEHHFCGAMIRGLTGDQFLDHPQFAPIFERAQKLDVPIYLHPGLPPKGVADIYYSGLPNYSGMAEALACYGWGWHSETALHVLRLLFSGIFDQYPKLKLVIGHMGEMLPMMMARSEKAFKPGNGGANVRTLTDTFRSQVYLTTSGFFTQPPLKIALDTFGIDHVMFSVDYPFSTNEMGIEFLNEIDLPDEEVARIAHGNADKLLNLKA as well.
Completion: 1.6

Prompt: Thanks! And 99 (protein, listed as Ralstonia solanacearum) MAIIDCHGHFTTAPTALEDWRKRQIANLATPALGPSPDDLKISDDALTEAIRANQLRLMQARGSDLTIFSPRASFMAHHIGDFHTSATWAAICNALCHRVSQLFPDHFVGAAMLPQSPGVDIRTCIPELARCIVDYGFVGVNLNPDPSGGHWTSPPLSDPYWFPLYEKLVEYDVPAMIHVSTSCNACFHTTGAHYLNADTTAFMQVLTSDLFRRFPTLKFVIPHGGGAVPYHWGRFRGLAQELKTPPLQEHLLHNVFFDTCVYHQPGIDLLTRVIPVDNILFASEMIGAVRGIDPETGHPFDDTRRYIDQAHTLSAEDRHKIYEGNARRVYPRLDARLKARGR ?
Completion: 1.7
